target: hCA XII (Homo sapiens, UniProt O43570); assay: hCA XII inhibition, stopped-flow technique; format: biochemical; details: SI, hCA XII over hCA I (ratio of Ki)
Sequence (O43570 25-354): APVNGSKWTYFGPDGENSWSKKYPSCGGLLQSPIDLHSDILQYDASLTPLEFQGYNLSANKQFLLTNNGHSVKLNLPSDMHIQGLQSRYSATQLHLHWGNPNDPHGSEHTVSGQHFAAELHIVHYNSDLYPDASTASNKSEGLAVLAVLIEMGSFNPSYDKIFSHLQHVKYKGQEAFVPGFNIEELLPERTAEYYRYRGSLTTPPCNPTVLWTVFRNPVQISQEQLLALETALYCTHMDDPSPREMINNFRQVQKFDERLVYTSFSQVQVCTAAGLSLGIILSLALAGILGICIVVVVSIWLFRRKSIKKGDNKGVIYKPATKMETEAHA
measured-property: Selectivity analysis hCA I/XII

smiles-data	Selectivity analysis hCA I/XII
COc1cc(C=NNC(=O)CSc2nc3ccccc3c(=O)n2CCc2ccc(S(N)(=O)=O)cc2)cc(OC)c1OC	21.66
COc1ccc(C=NNC(=O)CSc2nc3ccccc3c(=O)n2CCc2ccc(S(N)(=O)=O)cc2)cc1OC	15.289
COc1cc(OC)cc(C(C)=NNC(=O)CSc2nc3ccccc3c(=O)n2CCc2ccc(S(N)(=O)=O)cc2)c1	19.95
COc1ccc(C=NNC(=O)CSc2nc3ccccc3c(=O)n2CCc2ccc(S(N)(=O)=O)cc2)c(OC)c1	30.928
NS(=O)(=O)c1ccc(CCn2c(SCC(=O)NN=Cc3ccc(O)cc3)nc3ccccc3c2=O)cc1	34.08

I: COc1ccc(C=NNC(=O)CSc2nc3ccccc3c(=O)n2CCc2ccc(S(N)(=O)=O)cc2)cc1
II: NS(=O)(=O)c1ccc(CCn2c(SCC(=O)NN=Cc3cccc(O)c3)nc3ccccc3c2=O)cc1
Given I and given II , which shows the smaller recorded Selectivity analysis hCA I/XII? In your reply, give the label of the chosen option.
I
(I: 12.00, II: 27.58)

----------
target: hCA I (Homo sapiens)
Sequence (P00915 whole entry): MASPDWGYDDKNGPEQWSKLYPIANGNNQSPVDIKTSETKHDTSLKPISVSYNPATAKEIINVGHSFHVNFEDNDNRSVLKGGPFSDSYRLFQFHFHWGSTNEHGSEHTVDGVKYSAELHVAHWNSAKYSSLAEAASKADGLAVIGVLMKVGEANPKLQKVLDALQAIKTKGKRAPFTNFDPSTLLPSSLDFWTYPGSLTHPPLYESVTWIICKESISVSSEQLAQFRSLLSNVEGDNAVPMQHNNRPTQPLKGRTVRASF
pKi: −log10 of the molar value.
measured-property: pKi

The examples below pair each entry with its known result.
smiles-data	reported-result
COc1ccc(C=NNC(=O)CSc2nc3ccccc3c(=O)n2CCc2ccc(S(N)(=O)=O)cc2)c(OC)c1	5.64
COc1cc(C=NNC(=O)CSc2nc3ccccc3c(=O)n2CCc2ccc(S(N)(=O)=O)cc2)cc(OC)c1OC	5.70

a: COc1cc(C(C)=NNC(=O)CSc2nc3ccccc3c(=O)n2CCc2ccc(S(N)(=O)=O)cc2)cc(OC)c1OC
b: NS(=O)(=O)c1ccc(CCn2c(SCC(=O)NN=Cc3ccc4c(c3)OCO4)nc3ccccc3c2=O)cc1
c: COc1cc(OC)cc(C(C)=NNC(=O)CSc2nc3ccccc3c(=O)n2CCc2ccc(S(N)(=O)=O)cc2)c1
Sort by pKi, descending. Your task in answering is to list the labels in the requested order.
b, c, a
(b: 6.16, c: 5.94, a: 5.64)

----------
target: hCA II (Homo sapiens); test: hCA II inhibition, stopped-flow technique; type: biochemical
measured-property: Ki (nM)

smiles-data	unit-spec	Ki
COc1ccc(C=NNC(=O)CSc2nc3ccccc3c(=O)n2CCc2ccc(S(N)(=O)=O)cc2)cc1OC	nM	260

a: COc1cc(C=NNC(=O)CSc2nc3ccccc3c(=O)n2CCc2ccc(S(N)(=O)=O)cc2)cc(OC)c1OC
b: COc1ccc(OC)c(C(C)=NNC(=O)CSc2nc3ccccc3c(=O)n2CCc2ccc(S(N)(=O)=O)cc2)c1
c: NS(=O)(=O)c1ccc(CCn2c(SCC(=O)NN=Cc3ccc(O)cc3)nc3ccccc3c2=O)cc1
d: COc1cc(C=NNC(=O)CSc2nc3ccccc3c(=O)n2CCc2ccc(S(N)(=O)=O)cc2)ccc1O
Please put the entries in order of rising Ki. Show the ranking through the labels, in the order asked for.
d, c, b, a

----------
molecular target: hCA XII (Homo sapiens, UniProt O43570); assay: hCA XII inhibition, stopped-flow technique; format: biochemical; settings: SI, hCA XII over hCA II (ratio of Ki)
measured-property: Selectivity analysis hCA II/XII

compound	test-target	Selectivity analysis hCA II/XII
COc1ccc(C=NNC(=O)CSc2nc3ccccc3c(=O)n2CCc2ccc(S(N)(=O)=O)cc2)cc1 [Compound 10]	hCA XII (Homo sapiens, UniProt O43570)	1.79
COc1ccc(C(C)=NNC(=O)CSc2nc3ccccc3c(=O)n2CCc2ccc(S(N)(=O)=O)cc2)cc1OC [Compound 19]	hCA XII (Homo sapiens, UniProt O43570)	2.77
COc1cc(C=NNC(=O)CSc2nc3ccccc3c(=O)n2CCc2ccc(S(N)(=O)=O)cc2)cc(OC)c1OC [Compound 13]	hCA XII (Homo sapiens, UniProt O43570)	7.27
COc1ccc(C=NNC(=O)CSc2nc3ccccc3c(=O)n2CCc2ccc(S(N)(=O)=O)cc2)cc1OC [Compound 12]	hCA XII (Homo sapiens, UniProt O43570)	3.75

P: COc1cc(C=NNC(=O)CSc2nc3ccccc3c(=O)n2CCc2ccc(S(N)(=O)=O)cc2)ccc1O [Compound 14]
Q: NS(=O)(=O)c1ccc(CCn2c(SCC(=O)NN=Cc3ccc(O)cc3)nc3ccccc3c2=O)cc1 [Compound 7]
Of P and Q , which carries the smaller reported Selectivity analysis hCA II/XII figure? Please reply using the label of the selected record.
P
(P: 2.09, Q: 3.92)

a: COc1ccc(OC)c(C(C)=NNC(=O)CSc2nc3ccccc3c(=O)n2CCc2ccc(S(N)(=O)=O)cc2)c1 [Compound 20]
b: COc1ccc(C=NNC(=O)CSc2nc3ccccc3c(=O)n2CCc2ccc(S(N)(=O)=O)cc2)c(OC)c1 [Compound 11]
c: NS(=O)(=O)c1ccc(CCn2c(SCC(=O)NN=Cc3ccc4c(c3)OCO4)nc3ccccc3c2=O)cc1 [Compound 15]
Sort by Selectivity analysis hCA II/XII, descending. Use the labels to give the requested order.
a, c, b

1: COc1cc(C(C)=NNC(=O)CSc2nc3ccccc3c(=O)n2CCc2ccc(S(N)(=O)=O)cc2)cc(OC)c1OC [Compound 22]
2: COc1cc(OC)cc(C(C)=NNC(=O)CSc2nc3ccccc3c(=O)n2CCc2ccc(S(N)(=O)=O)cc2)c1 [Compound 21]
Of 1 and 2 , which one carries the higher reported Selectivity analysis hCA II/XII? Please identify the chosen entry by its label.
1
(1: 3.90, 2: 2.25)
